# System: SNB-75 CNS
# assay_info: NCI-60 one-dose screen, 48 h (100 = growth as untreated, 0 = no growth, -100 = all killed)
# run_parameters: 10 µM unless noted
The panel holds about 83,000 compounds, 20% with a hit somewhere; the sample as a whole holds those more often.
measurement_type: growth (%)
Numbers only, in %.

COc1ccc(C(=O)N2N=C(c3ccc(Br)cc3)CC2c2cn(-c3ccccc3)nc2-c2ccccc2)cc1 (stereo not given)
70.4

Okay, here is my list. What is growth for each of these?
1. CC[C@@H](C)/C=C(C)/C=C/C(=O)c1c(O)c(-c2ccc(OC(=O)[C@@]34CC[C@@](C)(C(=O)O3)C4(C)C)cc2)cn(O)c1=O
2. CC(C)CCCCCOC(=O)c1ccccc1SSc1ccccc1C(=O)OCCCCCC(C)C
3. CCC(C)CC(N)O (stereo not given)
4. Cc1nc(N)sc1C(=O)NCCO

Solution:
30.6
87.2
106
105

###

# Test system: SF-268 CNS
# assay_info: NCI-60 one-dose screen, 48 h
# run_parameters: 10 µM unless noted
The panel holds about 83,000 compounds, 20% with a hit somewhere; the sample as a whole holds those more often. Calls of active or inactive are those of the source. The calls were made as follows: active = growth percent below 10; inactive = the rest.
Entry note: the call must match one of active, inactive

CC(=O)Nc1nc(C)c(C(=O)N/N=C/N2CCCCC2)s1
inactive
CSCc1ncc(-c2ccc(C(F)(F)F)cc2)c(NC2CCCCCC2)n1
inactive
O=Nc1c(-c2c(O)[nH]c3cc(Br)ccc23)[nH]c2ccccc12
active

Exercise: For `Cn1c2ccccc2c2ccccc21` , which call appears in the assay record?
Solution: inactive

Exercise: For `CCn1cnc(C[C@H](NC(=O)[C@@H](NC(=O)Nc2cc(C(F)(F)F)cc(C(F)(F)F)c2)C(C)(C)C)C(=O)OC)c1` , which call appears in the assay record?
Solution: active

Exercise: For `CCCCN(CCCC)c1ccc(C(=O)O)cc1` , which call appears in the assay record?
Solution: inactive

###

# Tested on: MDA-MB-435 melanoma
# assay_info: NCI-60 one-dose screen, 48 h (100 = growth as untreated, 0 = no growth, -100 = all killed)
# run_parameters: 10 µM unless noted
Compounds without any hit were thinned out: in the full panel of roughly 83,000, 20% have a hit.
Binarize growth at 40%; below is Satisfied, at or above is Not satisfied.

Please review the following examples before continuing.
COc1ccc(C(=O)NCCNc2nccc(-c3c(-c4ccc(F)cc4)nc4sccn34)n2)cc1
Not satisfied
CCCCCCCCCCC1OC(C)CC(C)O1 (stereo unspecified)
Not satisfied
COc1cc(CCNc2cnc3cc(N)cc(N)c3n2)cc(OC)c1
Not satisfied
NNC(=S)N1N=C(c2cc3ccccc3o2)CC1c1c[nH]c2ccccc12 (stereo unspecified)
Not satisfied
CCCCCCCCCC[N+](C)(C)C
Satisfied

Here's the next entry for you.
Exercise: Is growth strictly under 40% for the entry `O=C(Nc1ccc(-n2cc(-c3ccncc3)c(-c3ccc(Cl)c(O)c3)n2)cc1)Nc1ccc(Cl)c(C(F)(F)F)c1` ?
Solution: Satisfied

###

# System: HCT-15 colon
# assay_info: NCI-60 one-dose screen, 48 h
# run_parameters: 10 µM unless noted
This is part of a sample that, as a whole, favours compounds with a hit. Of some 83,000 tested, about 20% had one in any assay. Active and inactive are the calls of the source. The calls were made as follows: active = growth percent below 10; inactive = the rest.
Entry note: the call must match one of 1 (yes) = active, 0 (no) = inactive

Please review the following examples before continuing.
CCOc1ccc(N(C)c2ccc(/C=C/C3=[N+](C)c4ccccc4C3(C)C)cc2)cc1
0 (no)
COC(=O)c1ccc2[nH]c(O)c(C(=Nc3ccc(N(C)C(=O)CN4CCN(C)CC4)cc3)c3ccc4c(c3)OCO4)c2c1
1 (yes)
CC(C)OC(=O)Nn1cnc2ccccc21
0 (no)

Exercise: For `CCOC(=O)c1sc(NS(=O)(=O)c2ccccc2)nc1C` , which call appears in the assay record?
Solution: 0 (no)

Exercise: For `Cc1c(C(N)=O)sc2c1c(=O)n(Cc1ccccc1)c1nnc(S(C)(=O)=O)n21` , which call appears in the assay record?
Solution: 0 (no)

Exercise: For `CCOc1ccc2nc3ccc(Cl)cc3nc2c1` , which call appears in the assay record?
Solution: 0 (no)

Exercise: For `C=CCN(C)C` , which call appears in the assay record?
Solution: 0 (no)
